SYSTEM: Kv1.6 (Homo sapiens)
Construct: expressed in transfected cells
TEST_SUMMARY: Patch clamp assay (QPatch), Kv1.6
Format: cell-based
EXPERIMENTAL_PARAMETERS: QPatch; CHO cells stably expressing human Kv1.6; read-out: Potency IC50, Kv1.6
pIC50: −log10 of the molar value.
Listed here: items and their measured pIC50.
MEASURED_METRIC: pIC50

[[record]]
substance = "H-NIDMRC(1)SASVEC(2)KQKC(3)LKAIGSIFGKC(1)MNKKC(2)KC(3)YPR-OH [Peptide 9]"
qualifier_sign = "<"
result_number = 5.52

[[record]]
substance = "H-N[Nle]D[Nle]RC(1)SASVEC(2)KQKC(3)LKAIGSIFGKC(1)[Nle]NKKC(2)KC(3)YPR-NH2 [Peptide 41]"
qualifier_sign = "="
result_number = 5.74

[[record]]
substance = "H-NMDMRC(1)SASVEC(2)KQKC(3)LDAIGSIFGKC(1)MNKKC(2)KC(3)YPR-NH2 [Peptide 21]"
qualifier_sign = "="
result_number = 5.60

[[record]]
substance = "H-N[Nle]D[Nle]RC(1)RASVEC(2)KQKC(3)LKAIGSIFGKC(1)[Nle]NKKC(2)KC(3)YPR-NH2 [Peptide 43]"
qualifier_sign = "="
result_number = 6.50

[[record]]
substance = "H-MDMRC(1)SASVEC(2)KQKC(3)LKAIGSIFGKC(1)MNKKC(2)KC(3)YPR-OH [Peptide 6]"
qualifier_sign = "<"
result_number = 5.52

[[record]]
substance = "H-NMDMRC(1)SASVEC(2)KQKC(3)LKAIGSRFGKC(1)MNKKC(2)KC(3)YPR-NH2 [Peptide 36]"
qualifier_sign = "="
result_number = 6.72

[[record]]
substance = "H-P[Nle]D[Nle]RC(1)SASVEC(2)KQKC(3)LKAIGSIFGKC(1)[Nle]NKKC(2)KC(3)YPR-NH2 [Peptide 42]"
qualifier_sign = "<"
result_number = 5.52

[[record]]
substance = "Ac-C(1)SASVEC(2)KQKC(3)LKAIGSIFGKC(1)[Nle]NKKC(2)KC(3)YPR-NH2 [Peptide 109]"
qualifier_sign = "<"
result_number = 5.52

[[record]]
substance = "H-NMDMRC(1)SASVEC(2)KQKC(3)LKAIGSKFGKC(1)MNKKC(2)KC(3)YPR-NH2 [Peptide 35]"
qualifier_sign = "="
result_number = 6.68

[[record]]
substance = "H-P[Nle]E[Nle]RC(1)[2-Amino-3-guanidinopropionyl]ASVEC(2)KQKC(3)LAAIGSIFGKC(1)[Nle]NKKC(2)KC(3)YPR-OH [Peptide 91]"
qualifier_sign = "<"
result_number = 5.52

[[record]]
substance = "H-NMDMRC(1)SASVEC(2)AQKC(3)LKAIGSIFGKC(1)MNKKC(2)KC(3)YPR-NH2 [Peptide 31]"
qualifier_sign = "<"
result_number = 5.52

[[record]]
substance = "Ac-LRC(1)SASVEC(2)KQKC(3)LKAIGSIFGKC(1)[Nle]NKKC(2)KC(3)YPR-NH2 [Peptide 114]"
qualifier_sign = "="
result_number = 5.61


====

SYSTEM: Kv1.6 (Homo sapiens, UniProt P17658)
Construct: expressed in transfected cells
Sequence (P17658 whole entry): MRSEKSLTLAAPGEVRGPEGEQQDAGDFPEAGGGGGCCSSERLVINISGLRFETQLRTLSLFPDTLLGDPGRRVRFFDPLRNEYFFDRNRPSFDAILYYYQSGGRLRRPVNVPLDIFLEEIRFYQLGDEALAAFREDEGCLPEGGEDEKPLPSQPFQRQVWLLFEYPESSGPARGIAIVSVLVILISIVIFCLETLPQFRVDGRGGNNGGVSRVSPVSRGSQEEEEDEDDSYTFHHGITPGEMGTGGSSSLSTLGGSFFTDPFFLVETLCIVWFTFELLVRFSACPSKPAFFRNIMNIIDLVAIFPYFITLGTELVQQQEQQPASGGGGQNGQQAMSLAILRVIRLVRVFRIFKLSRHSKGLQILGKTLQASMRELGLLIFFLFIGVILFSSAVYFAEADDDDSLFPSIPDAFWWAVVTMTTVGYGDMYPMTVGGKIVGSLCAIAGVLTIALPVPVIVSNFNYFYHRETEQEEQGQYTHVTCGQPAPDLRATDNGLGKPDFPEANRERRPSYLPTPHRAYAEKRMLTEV
TEST_SUMMARY: Patch clamp assay (QPatch), Kv1.6
Format: cell-based
EXPERIMENTAL_PARAMETERS: QPatch; CHO cells stably expressing human Kv1.6; read-out: Potency IC50, Kv1.6
pIC50: −log10 of the molar value.
MEASURED_METRIC: pIC50

[[record]]
substance = "H-NMDMRC(1)SASVEC(2)KQKC(3)LAAIGSIFGKC(1)MNKKC(2)KC(3)YPR-NH2 [Peptide 53]"
system = "Kv1.6 (Homo sapiens, UniProt P17658)"
qualifier_sign = "<"
result_number = 5.52

[[record]]
substance = "H-NMDMRC(1)SASVEC(2)KVKC(3)LKAIGSIFGKC(1)MNKKC(2)KC(3)YPR-NH2 [Peptide 18]"
system = "Kv1.6 (Homo sapiens, UniProt P17658)"
qualifier_sign = "="
result_number = 6.04

[[record]]
substance = "H-PIE[Nle]RC(1)SASVEC(2)KQKC(3)LKAIGSIFGKC(1)[Nle]NKKC(2)KC(3)YPR-OH [Peptide 99]"
system = "Kv1.6 (Homo sapiens, UniProt P17658)"
qualifier_sign = "<"
result_number = 5.52

[[record]]
substance = "H-NMDMRC(1)SASVEC(2)KEKC(3)LKAIGSIFGKC(1)MNKKC(2)KC(3)YPR-NH2 [Peptide 32]"
system = "Kv1.6 (Homo sapiens, UniProt P17658)"
qualifier_sign = "<"
result_number = 5.52

[[record]]
substance = "H-C(1)SASVEC(2)KQKC(3)LKAIGSIFGKC(1)MNKKC(2)KC(3)YPR-OH [Peptide 124]"
system = "Kv1.6 (Homo sapiens, UniProt P17658)"
qualifier_sign = "<"
result_number = 5.52

[[record]]
substance = "H-N[Nle]D[Nle]RC(1)SASVEC(2)KQKC(3)LKAIGSPFGKC(1)[Nle]NKKC(2)KC(3)YPR-NH2 [Peptide 63]"
system = "Kv1.6 (Homo sapiens, UniProt P17658)"
qualifier_sign = "="
result_number = 5.63

[[record]]
substance = "H-NMDMRC(1)SASREC(2)KQKC(3)LKAIGSIFGKC(1)MNKKC(2)KC(3)YPR-NH2 [Peptide 28]"
system = "Kv1.6 (Homo sapiens, UniProt P17658)"
qualifier_sign = "="
result_number = 6.69


====

SYSTEM: Kv1.6 (Homo sapiens)
Construct: expressed in transfected cells
TEST_SUMMARY: Patch clamp assay (QPatch), Kv1.6
Format: cell-based
EXPERIMENTAL_PARAMETERS: ratio of IC50 Kv1.6/Kv1.3
Listed here: items and their measured Selectivity Kv1.6/Kv1.3.
MEASURED_METRIC: Selectivity Kv1.6/Kv1.3

[[record]]
substance = "H-NID[Nle]RC(1)SASVEC(2)KQKC(3)LKAIGSIFGKC(1)[Nle]NKKC(2)KC(3)YPR-OH [Peptide 98]"
system = "Kv1.6 (Homo sapiens)"
result = ">11300"

[[record]]
substance = "H-C(1)SASVEC(2)KQKC(3)LKAIGSIFGKC(1)[Nle]NKKC(2)KC(3)YPR-NH2 [Peptide 108]"
system = "Kv1.6 (Homo sapiens)"
result = ">7000"

[[record]]
substance = "H-NMDMRC(1)SASVEC(2)KQLC(3)LKAIGSIFGKC(1)MNKKC(2)KC(3)YPR-NH2 [Peptide 19]"
system = "Kv1.6 (Homo sapiens)"
result = ">12700"

[[record]]
substance = "H-NMDMRC(1)SASVEC(2)KQKC(3)LKAIGSIFGKC(1)MNKKC(2)KC(3)YPRRRTA-NH2 [Peptide 24]"
system = "Kv1.6 (Homo sapiens)"
result = 1472

[[record]]
substance = "H-NMDMRC(1)SASVEC(2)LQKC(3)LKAIGSIFGKC(1)MNKKC(2)KC(3)YPR-NH2 [Peptide 30]"
system = "Kv1.6 (Homo sapiens)"
result = ">7400"


====

SYSTEM: Kv1.6 (Homo sapiens, UniProt P17658)
Construct: expressed in transfected cells
TEST_SUMMARY: Patch clamp assay (QPatch), Kv1.6
Assay type: cell-based
EXPERIMENTAL_PARAMETERS: QPatch; CHO cells stably expressing human Kv1.6; read-out: Potency IC50, Kv1.6
Listed here: items and their measured IC50.
MEASURED_METRIC: IC50

[[record]]
substance = "H-P[Nle]E[Nle]RC(1)SASVEC(2)KQKC(3)LAAIGSIFGKC(1)[Nle]NKKC(2)KC(3)YPR-OH [Peptide 100]"
measured_metric = "IC50"
result = "> 3000 nM"

[[record]]
substance = "H-NID[Nle]RC(1)SASVEC(2)KQKC(3)LKAIGSIFGKC(1)[Nle]NKKC(2)KC(3)YPR-OH [Peptide 98]"
measured_metric = "IC50"
result = "> 3000 nM"

[[record]]
substance = "H-C(1)SASVEC(2)KQKC(3)LKAIGSIFGKC(1)[Nle]NKKC(2)KC(3)YPR-NH2 [Peptide 108]"
measured_metric = "IC50"
result = "> 3000 nM"

[[record]]
substance = "H-NMDMRC(1)SASVEC(2)KQKC(3)LYAIGSIFGKC(1)MNKKC(2)KC(3)YPR-NH2 [Peptide 54]"
measured_metric = "IC50"
result = "> 3000 nM"

[[record]]
substance = "H-NMDMRC(1)SASVEC(2)KQKC(3)LKAIRSIFGKC(1)MNKKC(2)KC(3)YPR-NH2 [Peptide 22]"
measured_metric = "IC50"
result = "626 nM"

[[record]]
substance = "H-S[Nle]D[Nle]RC(1)SASVEC(2)GQKC(3)LKAIGSIFGKC(1)MNKKC(2)KC(3)YPR-NH2 [Peptide 73]"
measured_metric = "IC50"
result = "> 3000 nM"

[[record]]
substance = "Ac-SKC(1)SASVEC(2)KQKC(3)LKAIGSIFGKC(1)[Nle]NKKC(2)KC(3)YPR-NH2 [Peptide 113]"
measured_metric = "IC50"
result = "1450 nM"


Origin of values: patent US20260325605A1
